Listing: selectivity ratio of selected molecules
assay.summary: Selectivity index, ratio of CC50 for cytotoxicity against mouse J774.A1 cells to IC50 for antileishmanial activity against Leishmania donovani amastigotes infected in J774.A1 macrophage
Assay type: toxicity, cell-based
assay.conditions: read-out: Ratio CC50/IC50
Answer with the value's number alone.

Sample answers from the record:
# smiles.code, meas.value
measured = [
    ("O=C(Nc1ccc([N+](=O)[O-])cc1Cl)c1ccccc1O", 12.9),
    ("O=C(Nc1cc(Cl)cc(Cl)c1)c1cc(Cl)ccc1O", 10.1),
    ("O=C(Nc1ccc(Br)cc1)c1cc(Cl)ccc1O", 13.3),
]

According to the records, this molecule "O=C(Nc1ccc(Br)c(C(F)(F)F)c1)c1ccccc1O" displays selectivity ratio of 11.6

* * *

assay.summary: Selectivity index, ratio of CC50 for cytotoxicity against African green monkey Vero cells to IC50 for antileishmanial activity against Leishmania donovani amastigotes infected in J774.A1 macrophage
Type: toxicity, cell-based
assay.conditions: read-out: Ratio CC50/IC50
measurement.type: selectivity ratio
No unit in the answer, only the number.

Take a look at these entries with their results.
# compound, selectivity ratio
measured = [
    ("O=C(Nc1ccc(Br)c(C(F)(F)F)c1)c1ccccc1O", 1.13),
    ("O=C(Nc1ccc(Br)c(C(F)(F)F)c1)c1cc(Cl)ccc1O", 0.72),
    ("O=C(Nc1cccc(Cl)c1)c1cc(Cl)ccc1O", 3),
    ("O=C(Nc1ccc(Br)cc1)c1cc(Cl)ccc1O", 2.64),
    ("O=C(Nc1ccc(Cl)c(C(F)(F)F)c1)c1cc(Cl)ccc1O", 1.08),
]

Proceed to the following item.
Looking up "O=C(Nc1ccc([N+](=O)[O-])cc1Cl)c1ccccc1O" , I see its selectivity ratio listed as 2.23

* * *

assay.summary: Selectivity index, ratio of CC50 for cytotoxicity against mouse J774.A1 cells to IC50 for antileishmanial activity against Leishmania donovani amastigotes infected in J774.A1 macrophage
Assay type: toxicity, cell-based
assay.conditions: read-out: Ratio CC50/IC50
measurement.type: selectivity ratio
I'd appreciate a reply containing only the number, no unit.

# smiles.code, measurement.type, meas.value
data = [
    ("O=C(Nc1ccccc1F)c1cc(Cl)ccc1O", "selectivity ratio", 11.1),
    ("O=C(Nc1ccccc1Cl)c1cc(Cl)ccc1O", "selectivity ratio", 17.7),
    ("O=C(Nc1ccc(Br)c(C(F)(F)F)c1)c1cc(Cl)ccc1O", "selectivity ratio", 13.3),
    ("O=C(Nc1ccc(F)c(Cl)c1)c1cc(Cl)ccc1O", "selectivity ratio", 18.1),
    ("O=C(Nc1ccc(Cl)c(C(F)(F)F)c1)c1cc(Cl)ccc1O", "selectivity ratio", 13.1),
]

# ---- query compound ----
For record "O=C(Nc1ccc(F)cc1[N+](=O)[O-])c1ccccc1O" the listed selectivity ratio is 5.5

* * *

# selectivity ratio values compiled below
assay.summary: Selectivity index, ratio of CC50 for cytotoxicity against African green monkey Vero cells to IC50 for antileishmanial activity against Leishmania donovani amastigotes infected in J774.A1 macrophage
Assay type: toxicity, cell-based
assay.conditions: read-out: Ratio CC50/IC50

Examples from the recorded data:
# compound, selectivity ratio
data = [
    ("CCCCCCCCCCCCCCCCOP(=O)([O-])OCC[N+](C)(C)C", 5.6),
    ("O=C(Nc1cc(Cl)cc(Cl)c1O)c1c(O)c(Cl)cc(Cl)c1Cl [OXYCLOZANIDE]", 31.2),
    ("O=C(Nc1cc(Cl)cc(Cl)c1)c1ccccc1O", 0.89),
]

selectivity ratio recorded for this compound, "O=C(Nc1ccc(F)c(F)c1)c1ccccc1O" , is 6.17

Entry "O=C(Nc1ccc(Cl)cc1)c1cc(Cl)ccc1O" — recorded selectivity ratio = 7.8

Measured selectivity ratio, "O=C(Nc1cc(Cl)cc(Cl)c1)c1cc(Cl)ccc1O" : 1.69

* * *

assay.summary: Selectivity index, ratio of CC50 for cytotoxicity against African green monkey Vero cells to IC50 for antileishmanial activity against Leishmania donovani amastigotes infected in J774.A1 macrophage
Assay type: toxicity, cell-based
assay.conditions: read-out: Ratio CC50/IC50
measurement.type: selectivity ratio
Output spec: single numeric token, no unit.

# smiles.code, selectivity ratio
measured = [
    ("O=C(Nc1ccc(F)c(F)c1)c1cc(Cl)ccc1O", 2.99),
    ("O=C(Nc1ccc(F)cc1[N+](=O)[O-])c1cc(Cl)ccc1O", 5.65),
]

Now consider the entry below.
// "O=C(Nc1ccccc1Cl)c1cc(Cl)ccc1O" : selectivity ratio value = 5.02

* * *

assay.summary: Selectivity index, ratio of CC50 for cytotoxicity against mouse J774.A1 cells to IC50 for antileishmanial activity against Leishmania donovani amastigotes infected in J774.A1 macrophage
Format: toxicity, cell-based
assay.conditions: read-out: Ratio CC50/IC50
Parameter selectivity ratio: see the listing below.
# respond with the number and nothing more

Examples from the recorded data:
# compound, selectivity ratio
measured = [
    ("O=C(Nc1ccc([N+](=O)[O-])cc1F)c1cc(Cl)ccc1O", 10.8),
    ("O=C(Nc1cc(Cl)cc(Cl)c1O)c1c(O)c(Cl)cc(Cl)c1Cl [OXYCLOZANIDE]", 5.49),
    ("O=C(Nc1ccc(F)c(F)c1)c1cc(Cl)ccc1O", 14.5),
    ("O=C(Nc1ccc(F)cc1[N+](=O)[O-])c1cc(Cl)ccc1O", 12.8),
    ("O=C(Nc1ccc([N+](=O)[O-])cc1Cl)c1cc(Cl)ccc1O [NICLOSAMIDE]", 11.4),
    ("O=C(Nc1ccc(Cl)cc1)c1cc(Cl)ccc1O", 18.7),
    ("O=C(Nc1cccc(Cl)c1)c1cc(Cl)ccc1O", 10.9),
    ("CCCCCCCCCCCCCCCCOP(=O)([O-])OCC[N+](C)(C)C [MILTEFOSINE]", 5.76),
    ("O=C(Nc1ccc(F)c(F)c1)c1ccccc1O", 5.96),
    ("O=C(Nc1cc(Cl)cc(Cl)c1)c1ccccc1O", 5.3),
]

Turning now to a further compound:
Value of measured selectivity ratio for the entry "O=C(Nc1ccc([N+](=O)[O-])cc1F)c1ccccc1O" : 10.5

* * *

Test system: Leishmania donovani
assay.summary: Antileishmanial activity against Leishmania donovani amastigotes infected in J774.A1 macrophage assessed as inhibition of parasite growth by luciferase assay
Type: functional, organism-based
assay.conditions: Leishmania donovani, J774.A1; read-out: IC50
measurement.type: IC50 (µM)
Give the number; µM is assumed, so skip it.

Please review the entries below; each comes with its answer.
# compound, value.unit, IC50
rows = [
    ("CCCCCCCCCCCCCCCCOP(=O)([O-])OCC[N+](C)(C)C [MILTEFOSINE]", "µM", 9.25),
    ("O=C(Nc1ccc(F)cc1[N+](=O)[O-])c1ccccc1O", "µM", 7.47),
    ("O=C(Nc1cc(Cl)cc(Cl)c1O)c1c(O)c(Cl)cc(Cl)c1Cl [OXYCLOZANIDE]", "µM", 7.71),
    ("O=C(Nc1ccc(Br)c(C(F)(F)F)c1)c1cc(Cl)ccc1O", "µM", 3.5),
    ("O=C(Nc1ccc(Br)cc1)c1cc(Cl)ccc1O", "µM", 3.83),
    ("O=C(Nc1ccccc1Cl)c1cc(Cl)ccc1O", "µM", 2.62),
    ("O=C(Nc1ccc(F)cc1[N+](=O)[O-])c1cc(Cl)ccc1O", "µM", 3.88),
    ("O=C(Nc1ccc(Cl)c(C(F)(F)F)c1)c1cc(Cl)ccc1O", "µM", 4),
]

The reported IC50 of the compound "O=C(Nc1ccc(F)c(Cl)c1)c1cc(Cl)ccc1O" was 2.89

Kindly note the recorded IC50 for "O=C(Nc1ccc(F)c(F)c1)c1ccccc1O" , which is 7.36

Reported IC50 ( "O=C(Nc1ccccc1F)c1cc(Cl)ccc1O" ) = 3.95

* * *

assay.summary: Cytotoxicity against mouse J774A.1 cells assessed as reduction in cell viability by MTT assay
Type: toxicity, cell-based, J774.A1
Simple rule here: CC50 less than 50 µM is Met, otherwise Not met.

Here are 8 molecules together with their reported answers.
# molecule, qualitative.label
rows = [
    ("O=C(Nc1cc(Cl)cc(Cl)c1)c1cc(Cl)ccc1O", "Met"),
    ("O=C(Nc1ccc(F)cc1[N+](=O)[O-])c1ccccc1O", "Met"),
    ("O=C(Nc1ccc([N+](=O)[O-])cc1F)c1ccccc1O", "Met"),
    ("O=C(Nc1ccc(Cl)cc1)c1cc(Cl)ccc1O", "Met"),
    ("CCCCCCCCCCCCCCCCOP(=O)([O-])OCC[N+](C)(C)C [MILTEFOSINE]", "Not met"),
    ("O=C(Nc1cc(Cl)cc(Cl)c1O)c1c(O)c(Cl)cc(Cl)c1Cl [OXYCLOZANIDE]", "Met"),
    ("O=C(Nc1cc(Cl)cc(Cl)c1)c1ccccc1O", "Met"),
    ("O=C(Nc1ccc(Cl)c(C(F)(F)F)c1)c1cc(Cl)ccc1O", "Not met"),
]

Criterion: CC50 strictly below 50 µM. Is it met by "O=C(Nc1ccccc1F)c1cc(Cl)ccc1O" ? Met

In plain terms, does "O=C(Nc1ccc(Br)c(C(F)(F)F)c1)c1ccccc1O" come in under 50 µM for CC50? Met

Please indicate whether the reported CC50 of "O=C(Nc1ccc([N+](=O)[O-])cc1Cl)c1ccccc1O" is strictly below 50 µM. Met

Does the reported CC50 of the following molecule sit strictly below 50 µM? "O=C(Nc1ccc(Br)c(C(F)(F)F)c1)c1cc(Cl)ccc1O" Met

Record "O=C(Nc1ccc(F)c(Cl)c1)c1cc(Cl)ccc1O" : is its CC50 strictly below 50 µM? Not met

Take the molecule "O=C(Nc1ccc(F)c(F)c1)c1ccccc1O" and say whether its CC50 is less than 50 µM. Met

Just wondering, is CC50 of "O=C(Nc1ccc([N+](=O)[O-])cc1F)c1cc(Cl)ccc1O" below 50 µM? Met

CC50 strictly < 50 µM for this molecule? "O=C(Nc1ccccc1Cl)c1cc(Cl)ccc1O" Met

Bench note: check whether O=C(Nc1ccc([N+](=O)[O-])cc1Cl)c1cc(Cl)ccc1O [NICLOSAMIDE] shows CC50 below 50 µM Met
